Molecular target: T1, soluble recombinant human IL-1RI (corresponding to the extracellular domain of IL-1RI) (human, UniProt P14778 18-336)
T1 construct: extracellular domain
T1 sequence (looked up): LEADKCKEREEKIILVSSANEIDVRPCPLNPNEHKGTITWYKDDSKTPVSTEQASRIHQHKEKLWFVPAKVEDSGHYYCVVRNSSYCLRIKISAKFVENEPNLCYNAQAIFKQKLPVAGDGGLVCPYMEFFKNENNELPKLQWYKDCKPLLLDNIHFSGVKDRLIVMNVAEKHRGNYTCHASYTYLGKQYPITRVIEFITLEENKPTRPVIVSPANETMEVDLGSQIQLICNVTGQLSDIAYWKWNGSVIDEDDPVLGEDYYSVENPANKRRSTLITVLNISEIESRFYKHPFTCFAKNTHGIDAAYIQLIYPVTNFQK
Assay: SPR (Reichert SR7000DC), soluble recombinant human IL-1RI, PBS with 0.005% Tween 20
pKd: −log10 of the molar value.
measurement label: pKd

| binder | pKd |
| --- | --- |
| P02 (designed binder, Expressed in E. coli; also called chimeric cytokine domain P02) APVRSLAFRIWDVNQKTFYLRNNQLVAGYLQGPNVNLEEKIDVSFVQGEESNDKIPVALGIHGGKMCLSCVKSGDETRLQLEAVDPKNYPKKKMEKRFVFNKIEINNKLSFESAACPGWFLCTAMEADQPVSLTNMPDEGVMVTKFYMQFVSS | 9.20 |
| P05 (designed binder, Expressed in E. coli; also called EBI-005; chimeric cytokine domain P05) APVRSLNCRIWDVNQKTFYLRNNQLVAGYLQGPNVNLEEKFSMSFVQGEESNDKIPVALGLKEKNLYLSCVLKDDKPTLQLESVDPKNYPKKKMEKRFVFNKIEINNKLEFESAQFPNWFLCTAMEADQPVSLTNMPDEGVMVTKFYMQFVSS | 10.92 |
| P04 (designed binder, Expressed in E. coli; also called chimeric cytokine domain P04) APVRSLAFRIWDVNQKTFYLRNNQLVAGYLQGPNVNLEEKFSMSFVQGEESNDKIPVALGLKEKNLYLSCVLKDDKPTLQLESVDPKNYPKKKMEKRFVFNKIEINNKLEFESAACPGWFLCTAMEADQPVSLTNMPDEGVMVTKFTMQFVSS | 8.77 |
| P03 (designed binder, Expressed in E. coli; also called chimeric cytokine domain P03) APVRSLAFRIWDVNQKTFYLRNNQLVAGYLQGPNVNLEEKFSMSFVQGEESNDKIPVALGLKEKNLYLSCVLKDDKPTLQLESVDPKNYPKKKMEKRFVFIRSDSGPTTSFESAACPGWFLCTAMEADQPVSLTNMPDEGVMVTKFTMQFVSS | 9.54 |

1: P07 (designed binder, Expressed in E. coli) APVRSLNCRIWDVNQKTFYLRNNQLVAGYLQGPNVNLEEKFSMSFVQGEESNDKIPVALGLKEKNLYLSCVLKDDKPTLQLESVDPKNYPKKKMEKRFVFNKIEINNKLEFESAQFPNWFLCTAMEADQPVSLTNMPDEGQDITDFTMQFVSS
2: P06 (designed binder, Expressed in E. coli) APVRSLNCTLWDVNQKTFYLRNNQLVAGYLQGPNVEQQVVFSMSFVQGEESNDKIPVALGLKEKNLYLSCVLKDDKPTLQLESVDPKNYPKKKMEKRFVFNKIEINNKLEFESAQFPNWYISTSMEADQPVFLGGTKGGQDITDFTMQFVSS
In: Please let me know which one, 1 or 2 , has a lower measured pKd value. Answer by stating the label of the chosen item.
Out: 1

Source listed as patent US20140308239A1.
